# assay_info: NCI Yeast Anticancer Drug Screen. Data for the rad50 strain (AID 155);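 note: 0% = growth of vehicle-only cultures of the same strain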
# condition_info: S. cerevisiae rad50 strain growth inhibition; at 50.0 µM; stronger effect = higher value
The panel holds about 79,000 compounds, 15% with a hit somewhere; the sample as a whole holds those more often.
readout_name: growth inhibition (%)

>>> print(df.to_string())
                                    compound  observed_result
 0                N#CCc1ccc([N+](=O)[O-])cc1            -14.2
 1                           NCC(=O)CCC(=O)O              6.3
 2       OC1CCCc2ccccc21 (centres undefined)             17.6
 3  CCCCCCCCCCCCCCCCC1CC(=O)OC1=O (centres undefined)            -4.35
 4                       S=c1nn[nH]c2ccccc12             17.4
 5         O=C(Nc1ccccc1C(=O)NCC1CC1)c1cccs1            -13.1
 6           O=C(N/N=C/c1ccccc1O)Nc1nn[nH]n1            -15.8
 7  CC(CC(=O)c1ccccc1)c1ccccc1 (centres undefined)             -7.9
 8           O=c1[nH]nc(SC2CCCCC2)c(=O)[nH]1            -12.1
 9                         O=C(O)CSCSCC(=O)O             1.45
10                 CCCCOC(=O)c1ccc(C(C)C)cc1             8.85
11  COc1ccc(/C(C#N)=C2C=C/C(=N/O)c3ccccc3\2)cc1            -5.15
12      CCCCC(O)c1ccccc1 (centres undefined)            -16.6
13  COc1cccc(/C=N/NC(=S)NC2CC3CCC2C3)c1O (centres undefined)            -21.6
14  COc1cc(C2NC(=O)C(C#N)=C(Nc3cccc(C)c3)S2)ccc1O (centres undefined)             -2.7
15                            CC(=O)C1CCCCC1             26.7
16  COC(=O)C(C)Oc1ccc(OC#N)cc1 (centres undefined)            -21.3
17                          S=C1NCc2cncnc2N1            -13.7
18                  S=c1sc2ccccc2n1CN1CCCCC1              7.7
19                   NC(=S)N/N=C/c1ccc(N)cc1              7.2
20  O=C(Cc1nc2ccc([N+](=O)[O-])cc2nc1CC(=O)c1ccccc1)c1ccccc1             -2.4
21             CCCNC(=O)c1ccc(S(N)(=O)=O)cc1             -1.5
22            O=c1cc(-c2ccccc2)[nH]c2c1CCCC2            -17.8
23             CCCCC/C=N/Nc1nc(C)cc(=O)[nH]1             4.85
24  Cc1ccc(/C=C2\SC(=S)N(c3ccc(F)cc3)C2=O)o1             14.7
25                     CCCC(=O)c1cc(C)ccc1OC            -2.15
26                  Cc1ccc(S(=O)(=O)O)c(C)c1             19.3
27  O=C(N/N=C\c1cc(Br)cc(Br)c1O)N/N=C/c1cc(Br)cc(Br)c1O             41.4
28     COc1ccc(-c2cc3c(nn2)-c2ccccc2C3=O)cc1              1.1

---

# growth inhibition per entry
# assay_info: NCI Yeast Anticancer Drug Screen. Data for the sgs1 mgt1 strain (AID 161);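 note: 0% = growth of cultures given vehicle only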
# condition_info: S. cerevisiae sgs1 mgt1 strain, at 50.0 µM, stronger effect = higher value
Compounds without any hit were thinned out: in the full panel of roughly 79,000, 15% have a hit.
readout_name: growth inhibition (%)

                                    compound       readout_name  observed_result
 0                 CC(C)=CC(=O)OC(=O)C=C(C)C  growth inhibition            -21.2
 1                   Cc1ccc(CCCC(=O)O)c(C)c1  growth inhibition             22.1
 2            O=[N+]([O-])c1cccc(C(F)(F)F)c1  growth inhibition             -9.1
 3  CCc1nn(Cc2ccccc2)c2nc(C)c(CCc3ccccc3)c(Cl)c12  growth inhibition            -0.45
 4  O=c1cc2oc3cc(O)c(O)cc3c(-c3ccccc3O)c-2cc1O  growth inhibition             44.9
 5  Nc1nc(N)c2cc(S(=O)(=O)c3cccc(C(F)(F)F)c3)ccc2n1  growth inhibition              7.4
 6                                CC(=O)OCCO  growth inhibition            -9.65
 7     COCCCNC(=O)c1nnn2c1nc(N)c1cc(Cl)ccc12  growth inhibition             25.6
 8          O=C(NN=C1CCCCC1)C(=O)NN=C1CCCCC1  growth inhibition             13.5
 9            CC(C)(C)c1cc(O)c(C(C)(C)C)cc1O  growth inhibition             6.05
10          CN(C)C(=O)Oc1cccc([N+](C)(C)C)c1  growth inhibition             5.95
11         N#C/C(=C\c1cc(O)c(O)c(O)c1)C(N)=O  growth inhibition             24.6
12                           COC(=O)c1cccnc1  growth inhibition            -0.35
13                   COS(=O)(=O)c1ccc(Br)cc1  growth inhibition            -17.3
14  CCCC(=O)Nc1ccc2c(c1)CN1C(=O)c3ccccc3C1=N2  growth inhibition             7.75
15  CCCOC(=O)C(O)c1ccccc1 (centres undefined)  growth inhibition             -5.5
16     CCN1C(=O)/C(=C/C=C/N(C)c2ccccc2)SC1=S  growth inhibition             3.25
17                   O=C(Cc1ccccc1)Cc1ccccc1  growth inhibition            -0.45
18  COc1ccc(/C(C#N)=C2C=C/C(=N/O)c3ccccc3\2)cc1  growth inhibition             8.75
19                     O=C(O)CNC(=O)c1ccccc1  growth inhibition            -25.6
20                   CC(C)C(C#N)(C(C)C)C(C)C  growth inhibition                4
21                    c1ccc2c(c1)Sc1ccccc1S2  growth inhibition             22.1
22                      CC(C)(N)COS(=O)(=O)O  growth inhibition            -7.95
23      N#Cc1ccc(OC(=O)Nc2ccc(Cl)c(Cl)c2)cc1  growth inhibition             20.9
24               CC1(C)S(=O)(=O)OCCOS1(=O)=O  growth inhibition             6.75
25                 Cc1cc(=O)cc(C)n1-c1ccccc1  growth inhibition            -15.4
26                     COc1ccc(NC(=O)CCl)cc1  growth inhibition             24.4
27                                  CCCCCCCO  growth inhibition            -28.8
28   CCOC(=O)Nc1cc2c(c(N)n1)N=C(c1ccccc1)CO2  growth inhibition               34

---

# assay_info: NCI Yeast Anticancer Drug Screen. Data for the bub3 strain (AID 167)
# condition_info: S. cerevisiae bub3 mutant strain, at 50.0 µM, stronger effect = higher value
Compounds without any hit were thinned out: in the full panel of roughly 79,000, 15% have a hit.
readout_name: growth inhibition (%)

>>> df
                                    compound       readout_name  observed_result
 0  O=C(NCCNC(=O)c1ccc(Cl)cc1Cl)c1ccc(Cl)cc1Cl  growth inhibition            -1.25
 1                    Cn1cnc2nc(Cl)nc(Cl)c21  growth inhibition             27.1
 2                     CCCCOC(OCCCC)c1ccccc1  growth inhibition             -1.8
 3  COc1cc2cc(OC(C)=O)c3cc4c(cc3c2c(OC)c1OC)OCO4  growth inhibition            -21.9
 4             NC(=O)c1ccc(N=C(N)N=C(N)N)cc1  growth inhibition            -11.8
 5         N#Cc1ccc(NC(=O)Nc2cccc(C#N)c2)cc1  growth inhibition             -0.3
 6  O=[N+]([O-])c1ccc(N=Nc2ccc(O)c3ccccc23)cc1  growth inhibition            -25.2
 7                          NNc1ccccc1C(=O)O  growth inhibition               -2
 8               O=C(c1ccc(O)cc1)c1ccc(O)cc1  growth inhibition            -9.15
 9        CCOC(=O)/C(=C/c1ccc(OC)cc1)N(CC)CC  growth inhibition            -19.1
10                      CCCCNC(=O)C(=O)NCCCC  growth inhibition                7
11       COCCCC/C(=N\OCCN)c1ccc(C(F)(F)F)cc1  growth inhibition            -0.35
12         CCOC(=O)c1coc(C(=O)OCC)c1C(=O)OCC  growth inhibition              4.6
13                       c1ccc(Sc2ccccc2)cc1  growth inhibition            -7.95
14                        CCOC(=O)C/C(C)=N\O  growth inhibition             9.15
15               NC(N)=Nc1cc2ccccc2c2ccccc12  growth inhibition               -3
16         CN(C)Cc1cc(C(C)(C)CC(C)(C)C)ccc1O  growth inhibition             17.1
17  OCC1OC(OC2C(O)C(CO)OC2(CO)OC2OC(CO)C(O)C(O)C2O)C(O)C(O)C1O (stereo not drawn)  growth inhibition            -14.2
18                         C=CC(=O)OCCCCCCCC  growth inhibition              2.4
19                   COS(=O)(=O)c1ccc(Br)cc1  growth inhibition              0.6
20                 Cc1cc(N)ccc1-c1ccc(N)cc1C  growth inhibition            -23.1
21             Oc1ccc(N=Nc2ccc(Br)cc2)c(O)c1  growth inhibition             33.6
22             COc1cc2nn(-c3ccccc3N)nc2cc1OC  growth inhibition             52.2
23  CCCC(=O)Nc1ccc2c(c1)CN1C(=O)c3ccccc3C1=N2  growth inhibition            -1.65
24  CC(CN1CCCCC1)NC(=O)c1scnc1-c1ccccc1 (stereo not drawn)  growth inhibition            -1.55
25                    CC1=CC(=O)c2ccccc2C1=O  growth inhibition             25.6
26                          NC(=S)NN=C1CCCC1  growth inhibition            -2.45
27                   CC(=O)/C(Cc1ccccc1)=N/O  growth inhibition             -2.1
